Listing: phosphorylation enrichment of selected sequences
Target desc: EPHB1 (UniProt P54762)
Sequence (P54762 whole entry, looked up): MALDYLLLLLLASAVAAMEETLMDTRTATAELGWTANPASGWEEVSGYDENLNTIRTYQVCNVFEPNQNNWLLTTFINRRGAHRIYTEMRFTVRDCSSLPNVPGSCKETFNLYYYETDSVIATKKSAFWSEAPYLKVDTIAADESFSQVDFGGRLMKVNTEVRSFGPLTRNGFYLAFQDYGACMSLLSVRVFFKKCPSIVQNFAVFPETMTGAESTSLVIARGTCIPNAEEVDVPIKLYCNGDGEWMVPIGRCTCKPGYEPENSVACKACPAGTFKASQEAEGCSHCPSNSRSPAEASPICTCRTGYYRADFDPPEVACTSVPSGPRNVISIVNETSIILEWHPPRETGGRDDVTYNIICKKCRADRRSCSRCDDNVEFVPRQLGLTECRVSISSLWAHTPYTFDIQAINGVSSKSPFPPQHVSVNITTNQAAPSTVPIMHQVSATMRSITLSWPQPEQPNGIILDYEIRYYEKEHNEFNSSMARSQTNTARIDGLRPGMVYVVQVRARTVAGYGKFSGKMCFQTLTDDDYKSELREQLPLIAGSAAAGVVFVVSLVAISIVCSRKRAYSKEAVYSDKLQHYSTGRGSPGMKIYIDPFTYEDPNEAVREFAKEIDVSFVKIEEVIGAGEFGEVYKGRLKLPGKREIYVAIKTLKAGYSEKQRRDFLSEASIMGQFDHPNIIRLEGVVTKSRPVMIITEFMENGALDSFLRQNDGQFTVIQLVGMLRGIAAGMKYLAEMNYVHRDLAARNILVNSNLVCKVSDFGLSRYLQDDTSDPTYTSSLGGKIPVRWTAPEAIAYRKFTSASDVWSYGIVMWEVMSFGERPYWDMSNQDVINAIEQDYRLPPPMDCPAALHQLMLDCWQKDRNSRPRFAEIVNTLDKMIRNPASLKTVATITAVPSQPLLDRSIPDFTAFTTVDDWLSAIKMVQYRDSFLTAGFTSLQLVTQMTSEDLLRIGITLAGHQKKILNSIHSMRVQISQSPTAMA
Assay overview: phosphorylation enrichment, bacterial display (enrichment ratio); higher = better substrate or ligand; peptides without Tyr show the background;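 further: 11-residue human phosphosite peptides and single-mutation variants displayed on the E. coli surface, counted by deep sequencing, each peptide's frequency after selection divided by its frequency in the unselected input library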;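 further: frequency after pTyr selection over input frequency; kinase dosed for 20-30% of maximal phosphorylation in three min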
Measurement label: phosphorylation enrichment

Query sequence	Target desc	Reported result
GINDDYGQLKN [NBN_Y679]	EPHB1 (UniProt P54762)	0.364
MHDSNSVSKGS [PDGFRA_Y849_Y849S]	EPHB1 (UniProt P54762)	0.282
SVTCTNSPALN [TP53_Y126_Y126N]	EPHB1 (UniProt P54762)	0.586
TEAEPYFRSLR [NPHS1_Y1138_YF]	EPHB1 (UniProt P54762)	0.448
PVQAADQKVVA [HBB_Y131_Y131D]	EPHB1 (UniProt P54762)	0.508
LIDSSYLTPTA [GREB1L_Y1063_R1066P]	EPHB1 (UniProt P54762)	0.569
MSPPGYKLVNG [GJA1_Y286_T290N]	EPHB1 (UniProt P54762)	0.403

---

Tested on: c-Abl (mouse)
Assay overview: phosphorylation enrichment, bacterial display (enrichment ratio); higher = better substrate or ligand; peptides without Tyr show the background

Query sequence	phosphorylation enrichment
TRSYDYMEGGD [FGF7_Y58]	0.586
ASKEPYFVHCI [MYO1D_Y585_R588H_YF]	0.611
GSETPYVDRTP [ESS2_Y335]	0.603

---

Entries annotated with measured phosphorylation enrichment
Target desc: FGFR3 (UniProt P22607)
Sequence (P22607 whole entry, looked up): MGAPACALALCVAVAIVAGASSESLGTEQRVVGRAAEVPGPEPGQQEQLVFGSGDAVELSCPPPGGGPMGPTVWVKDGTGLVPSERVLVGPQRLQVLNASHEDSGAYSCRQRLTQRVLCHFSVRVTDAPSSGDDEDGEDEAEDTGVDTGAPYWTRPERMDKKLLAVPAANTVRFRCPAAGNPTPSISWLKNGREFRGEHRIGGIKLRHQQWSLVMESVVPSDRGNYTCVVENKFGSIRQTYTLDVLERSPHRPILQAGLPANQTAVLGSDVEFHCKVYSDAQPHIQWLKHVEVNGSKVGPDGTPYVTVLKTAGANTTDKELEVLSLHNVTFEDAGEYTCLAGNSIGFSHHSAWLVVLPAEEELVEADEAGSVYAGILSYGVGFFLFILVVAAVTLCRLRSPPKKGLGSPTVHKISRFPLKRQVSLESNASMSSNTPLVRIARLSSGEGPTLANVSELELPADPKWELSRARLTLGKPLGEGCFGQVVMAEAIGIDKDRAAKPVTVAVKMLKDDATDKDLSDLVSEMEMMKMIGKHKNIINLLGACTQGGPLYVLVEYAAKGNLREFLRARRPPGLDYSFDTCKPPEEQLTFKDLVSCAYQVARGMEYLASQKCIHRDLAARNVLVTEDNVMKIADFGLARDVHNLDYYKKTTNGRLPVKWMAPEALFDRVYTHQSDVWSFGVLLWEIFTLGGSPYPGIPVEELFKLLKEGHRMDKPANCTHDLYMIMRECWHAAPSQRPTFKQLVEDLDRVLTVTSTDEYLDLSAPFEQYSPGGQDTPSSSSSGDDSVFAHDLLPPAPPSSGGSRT
Assay overview: phosphorylation enrichment, bacterial display (enrichment ratio); higher = better substrate or ligand; peptides without Tyr show the background
Measurement label: phosphorylation enrichment

Query sequence	Reported result
CTTIHYNFMCI [TP53_Y234_N239I_YF]	0.707
SVTCPYSPALN [TP53_Y126_T125P]	0.679
GIFSGYDDAWD [POLR1C_Y36_N32I_YF]	0.7

---

Target desc: EPHB2 (UniProt P29323)
Sequence (P29323 whole entry, looked up): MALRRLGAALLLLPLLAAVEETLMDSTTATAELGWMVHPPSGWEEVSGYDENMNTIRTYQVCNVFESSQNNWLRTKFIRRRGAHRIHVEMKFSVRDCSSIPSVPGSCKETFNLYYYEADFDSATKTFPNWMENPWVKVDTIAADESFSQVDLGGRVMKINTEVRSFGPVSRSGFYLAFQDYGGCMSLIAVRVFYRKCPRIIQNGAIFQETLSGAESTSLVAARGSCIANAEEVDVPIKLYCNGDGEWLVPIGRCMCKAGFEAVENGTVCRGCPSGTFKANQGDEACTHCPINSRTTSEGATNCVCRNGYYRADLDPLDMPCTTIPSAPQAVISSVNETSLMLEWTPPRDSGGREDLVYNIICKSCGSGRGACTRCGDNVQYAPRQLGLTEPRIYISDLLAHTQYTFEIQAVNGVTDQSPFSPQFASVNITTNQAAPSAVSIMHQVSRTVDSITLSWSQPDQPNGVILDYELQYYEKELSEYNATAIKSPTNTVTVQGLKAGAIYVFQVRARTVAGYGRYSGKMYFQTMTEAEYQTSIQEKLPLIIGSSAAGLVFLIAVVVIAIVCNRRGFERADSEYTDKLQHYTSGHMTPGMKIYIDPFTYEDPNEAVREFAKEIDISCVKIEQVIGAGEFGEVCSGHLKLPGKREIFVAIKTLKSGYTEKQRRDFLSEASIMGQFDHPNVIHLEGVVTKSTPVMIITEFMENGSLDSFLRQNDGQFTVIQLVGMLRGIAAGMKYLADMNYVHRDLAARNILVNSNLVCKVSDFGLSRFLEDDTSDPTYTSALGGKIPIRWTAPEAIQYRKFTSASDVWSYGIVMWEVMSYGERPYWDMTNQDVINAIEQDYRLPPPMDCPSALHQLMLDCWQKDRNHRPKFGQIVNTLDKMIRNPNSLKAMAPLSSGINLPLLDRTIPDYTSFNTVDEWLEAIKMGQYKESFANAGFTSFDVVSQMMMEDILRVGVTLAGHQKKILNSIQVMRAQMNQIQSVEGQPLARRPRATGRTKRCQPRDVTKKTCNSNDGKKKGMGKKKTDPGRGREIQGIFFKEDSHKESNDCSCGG
Assay overview: phosphorylation enrichment, bacterial display (enrichment ratio); higher = better substrate or ligand; peptides without Tyr show the background
Label scheme for phosphorylation enrichment: low range (below 0.5), mid range (0.5 to below 0.6), high range (0.6 or more)

Query sequence	Label value
KRLDGYVLEGW [IGSF9_Y656_R661W]	low range
EVTLTYATGTK [NFKB1_Y485]	mid range
TYVKSYTIHYS [F5_Y2153_M2148T]	high range
DGFIDYAEFAK [MCFD2_Y138_YF]	high range
PLYRKYWPNHI [GREB1L_Y1560]	high range
CRAVKYLQMVR [AVPR2_Y117_G122R]	low range
GCRSKHVGLWG [KCNQ1_Y184_Y184H]	low range
RAADYYSQQMA [GBP6_Y334]	low range
WDLSEYSYKDP [ITGA3_Y237]	mid range
QGFDTYFGFLL [ARSB_Y165_R160Q_YF]	high range
EKLIQYCQSKG [AKR1B1_Y199]	mid range
EWLRGYLENGK [HLA-C_Y195_R194G]	high range
SSVKPYRVFCD [FGB_Y266_YF]	low range
KTGDFYDLFGG [PTPN11_Y63_N58K_YF]	low range
KKDGPYDVVVL [PARK7_Y67_E64D]	mid range
FASALYRQRRS [FGF11_Y162_YF]	high range
MDDPRYGMCPL [ZNF100_Y6]	high range
NTGDFYDLFGG [PTPN11_Y63_YF]	high range
RLPINYTTRRI [LAMA2_Y2894_G2889R]	mid range
